Recorded LPS % cell toxicity by entry
- Tested on: primary rat microglia
- measurement protocol: Cell toxicity (dead cells, size <150 μm2) in LPS assay
- assay setup: primary microglia HTS, LPS stimulation; decreased size (<150 μm^2) as marker of toxicity
Structures can show the parent of a compound that is named as a salt.
Enter your answer as a number in %; do not include the unit.

// CC(CCc1ccc(O)cc1)NCC(O)c1ccc(O)cc1 (centres unmarked) [Ractopamine hydrochloride, reference compound] : LPS % cell toxicity value = 0

// NCCc1cc[nH]n1 [Betazole hydrochloride, reference compound] : LPS % cell toxicity value = 1

// COc1ccc2cc1Oc1ccc(cc1)C[C@H]1c3c(cc4c(c3Oc3cc5c(cc3OC)CCN(C)[C@@H]5C2)OCO4)CCN1C [Cepharanthine] : LPS % cell toxicity value = 58

// CCCCCCCCCCCCCCCCOP(=O)([O-])OCC[N+](C)(C)C [Miltefosine] : LPS % cell toxicity value = 0

// Cc1cc(NC(=O)C2=C(O)c3ccccc3S(=O)(=O)N2C)no1 [Isoxicam, reference compound] : LPS % cell toxicity value = 1

Further cases:
// COc1ccc2[nH]cc(CCNC(C)=O)c2c1 [Melatonin] : LPS % cell toxicity value = 0

// C[C@@H]1[C@H](O)[C@@H](C)/C=C/C=C/CC/C=C/C=C/C=C/C=C/C(O[C@H]2O[C@H](C)[C@@H](O)[C@H](N)[C@@H]2O)CC2O[C@](O)(CC(O)C(O)CCC(O)CC(O)CC(O)CC(=O)O[C@H]1C)CC(O)C2C(=O)O (some centres unmarked) [Nystatin] : LPS % cell toxicity value = 1

// CCOC(=O)C1=C(C)NC(C)=C(C(=O)OC)C1c1cccc([N+](=O)[O-])c1 (centres unmarked) [Nitrendipine] : LPS % cell toxicity value = 0

// CCC(=O)OCC(=O)[C@@]1(OC(=O)CC)[C@H](C)C[C@H]2[C@H]3[C@H]([C@@H](O)C[C@@]21C)[C@@]1(C)C=CC(=O)C=C1C[C@H]3Cl [Alclometazone dipropionate, reference compound] : LPS % cell toxicity value = 2

// OCCN1C[C@H](O)[C@@H](O)[C@H](O)[C@H]1CO [Miglitol] : LPS % cell toxicity value = 0

// CC(=O)O[C@]1(C(C)=O)CC[C@H]2[C@@H]3C[C@H](C)C4=CC(=O)CC[C@]4(C)[C@H]3CC[C@@]21C [Medroxyprogesterone acetate, reference compound] : LPS % cell toxicity value = 1

// O=C(NCCN1CCOCC1)c1ccc(Cl)cc1 [Moclobemide] : LPS % cell toxicity value = 0

// Cc1ccc(Cl)c(Nc2ccccc2C(=O)O)c1Cl [Meclofenamic Acid] : LPS % cell toxicity value = 0

// CCCCN1C[C@H](O)[C@@H](O)[C@H](O)[C@H]1CO [Miglustat] : LPS % cell toxicity value = 0

// CC[C@@H](CO)NC(=O)[C@@H]1C=C2c3cccc4c3c(cn4C)C[C@H]2N(C)C1 [Methysergide Maleate] : LPS % cell toxicity value = 0

// C[C@]12CC[C@@H]3c4ccc(O)cc4CC[C@H]3[C@@H]1CCC2=O [Estrone] : LPS % cell toxicity value = 25

// CN1CCOC(c2ccccc2)c2ccccc2C1 (centres unmarked) [Nefopam] : LPS % cell toxicity value = 0
